Kindly state pIC50 for each of the entries shown.
# Study Target: Steroidogenic factor 1 (Homo sapiens)
# Assay Remarks: blockers of SF-1 LBD reporter transcription – cell-based, CHO-K1, Gal4-SF-1 LBD, luciferase luminescence, dose response (AID 600)
Give bare numbers, as −log10 of the molar value.

Some entries whose results are on file:
O=C(Nc1nc(-c2ccccn2)cs1)c1ccc(S(=O)(=O)N2CCCCC2)cc1 | 5.00
Nc1ccc(-c2nc3c(Cl)cc(N)cc3[nH]2)cc1 [MLS000034140] | 5.29
O=C(Nc1nc2cc3c(cc2s1)OCO3)C1=COCCO1 [MLS000103798] | 5.43
Nc1nsc2ccccc12 [1,2-benzothiazol-3-amine] | 5.17
c1ccc2nc(-c3nc4ccccc4[nH]3)ccc2c1 [SMR000008748] | 5.62
COc1ccccc1-c1nnc2sc(-c3ccc(N(C)C)cc3)nn12 | 5.20
Clc1ccc(-n2ncc3c(N4CCCCCC4)ncnc32)cc1 | 5.50
O=C(c1ccc(Cl)cc1)N1CCCCC(Sc2nnc(-c3ccc4c(c3)OCO4)o2)C1=O (stereo not given) | 5.97

Respectfully, I request pIC50 for each entry included below.
1. CCOc1cc(C(=O)CSc2nnc(CNc3ccc(Cl)cc3)o2)ccc1NC(=O)CC [MLS000032332]
2. CC(C)NCC(O)Cn1c2c(c3ccccc31)CCc1c-2cnn1-c1ccccc1 (stereo not given)
3. CCn1c2ccccc2c2cc(Nc3cc(C)nc4ncnn34)ccc21
4. CCc1ccc(-c2nc(CSCC(=O)NCCCN3CCCC3=O)c(C)o2)cc1

[5.08, 5.23, 5.21, 5.36]

Readout pIC50 for CCOC(=O)c1cnc(-n2nc(C)cc2C)nc1NC1CCCCC1 , test system Steroidogenic factor 1 (Homo sapiens), was 5.25

====

# Study Target: Steroidogenic factor 1 (Homo sapiens, UniProt Q13285)
# Sequence (Q13285 whole entry, the tested form may be a part): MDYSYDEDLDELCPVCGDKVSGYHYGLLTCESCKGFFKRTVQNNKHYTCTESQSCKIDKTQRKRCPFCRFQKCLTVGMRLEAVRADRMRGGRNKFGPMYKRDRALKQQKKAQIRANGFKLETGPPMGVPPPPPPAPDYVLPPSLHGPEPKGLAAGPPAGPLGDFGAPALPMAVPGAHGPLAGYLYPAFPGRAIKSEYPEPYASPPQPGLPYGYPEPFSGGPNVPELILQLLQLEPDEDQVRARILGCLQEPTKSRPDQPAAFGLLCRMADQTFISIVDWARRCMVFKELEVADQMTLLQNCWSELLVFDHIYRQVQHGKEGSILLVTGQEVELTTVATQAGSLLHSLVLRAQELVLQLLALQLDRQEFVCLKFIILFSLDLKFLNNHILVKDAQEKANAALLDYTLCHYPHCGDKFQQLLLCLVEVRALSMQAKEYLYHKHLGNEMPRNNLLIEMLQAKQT
# Assay Remarks: blockers of SF-1 LBD reporter transcription – cell-based, CHO-K1, Gal4-SF-1 LBD, luciferase luminescence, dose response (AID 600)
Kindly state IC50 for each of the entries shown.

Cc1nc(N2CCN(c3ccccc3)CC2)nc(O)c1Cc1cccc2ccccc12 [MLS000084491] | > 3.67 µM
CCC(NC(=O)Nc1nnc(C(F)(F)F)s1)(C(F)(F)F)C(F)(F)F | > 11 µM
CCOC(=O)CSc1nc2cc(C(=O)NCc3ccco3)ccc2c(=O)n1-c1ccc(F)cc1 | > 11 µM
CN(C)c1ccc(-c2nc3ccccc3n2C)cc1 [MLS000089904] | > 3.67 µM
Cc1cc(C=Nn2cnnc2)c(C)n1-c1ccc(OCc2ccc(F)cc2)cc1 [MLS000112167] | > 3.67 µM
C/C(Cl)=C\Cn1c(NCCc2ccccc2)nc2c1c(=O)n(C)c(=O)n2C [SMR000044779] | > 11 µM

Respectfully, I request IC50 for each entry included below.
1. COc1cc(C2c3ccc(N(C)C)cc3OC(=N)C2C#N)cc2c1OCO2 (stereo not drawn)
2. CCOc1ccc(OCc2cccc(C(=O)N3CCOCC3)c2)cc1
3. CN(CC1CCCO1)S(=O)(=O)c1ccc(C(=O)Nc2nc(-c3ccccn3)cs2)cc1 (stereo not drawn)
4. Cn1c(SC2=CS(=O)(=O)c3ccccc32)nc2ccccc21
5. c1ccc(-n2nnc3c(N4CCOCC4)ncnc32)cc1
6. O=C(NCCOc1ccccc1)c1ccc2c(c1)OCO2 [MLS000100028]
7. Cc1sc(NC(=O)c2ccco2)c(C(c2cccnc2)N2CCN(c3ccc(F)cc3)CC2)c1C (stereo not drawn) [MLS000114428]

1: > 3.67 µM; 2: > 1.22 µM; 3: > 3.67 µM; 4: > 3.67 µM; 5: > 99 µM; 6: > 1.22 µM; 7: > 11 µM

====

Kindly state pIC50 for each of the entries shown.
# Study Target: Steroidogenic factor 1 (Homo sapiens)
# Assay Remarks: blockers of SF-1 LBD reporter transcription – cell-based, CHO-K1, Gal4-SF-1 LBD, luciferase luminescence, dose response (AID 600)
pIC50: −log10 of the molar value.

Some entries whose results are on file:
CN(C)c1ccc(N=CCC(=O)c2ccccc2)cc1 | < 4.96
CCCOc1ccc(-c2nnc(-c3ccco3)o2)cc1 | < 5.44
CCOC(=O)c1c(N)sc(C(=O)Nc2ccc3c(c2)OCO3)c1C | < 5.44
Cc1nc2nc(-c3ccccc3)cn2nc1C | < 4.96
O=C(NCCCN1CCOCC1)c1csc2c1CCCC2 [MLS000093382] | < 4.00

The molecule listed as CCSc1nnc(NC(=O)c2ccccn2)s1 [MLS000056851] has a reported pIC50 of < 5.44

====

# Study Target: UniProt Q13285
# Assay Remarks: blockers of SF-1 LBD reporter transcription – cell-based, CHO-K1, Gal4-SF-1 LBD, luciferase luminescence, dose response (AID 600)
Kindly state pIC50 for each of the entries shown.
Numbers only, as −log10 of the molar value.

Some entries whose results are on file:
Nc1nnnn1N=C/C(Br)=C/c1ccccc1 | 5.50
CCCCn1c2c(c(=O)n(C)c1=O)C(c1ccc(OC)cc1)N1CCCCCC1=N2 (stereo unspecified) | 5.10
CC(=O)Nc1ccc(SCC(=O)c2cc(C)n(Cc3cccs3)c2C)cc1 | 5.40
COC(=O)c1ccc(Oc2cc(C)nc(-n3nc(C)cc3C)n2)cc1 | 5.07
O=C(Oc1ccc(-c2nc(-c3ccccn3)no2)cc1)c1ccccc1 | 5.17
COc1ccc(OCc2cccc(C(=O)O)c2)cc1 [3-[(4-methoxyphenoxy)methyl]benzoic acid] | 6.38

Respectfully, I request pIC50 for each entry included below.
1. Fc1ccc2[nH]c3c(N4CCN(c5ccccc5)CC4)ncnc3c2c1
2. COc1cc(OC)cc(-c2cc3nc(C)c(CCC(=O)O)c(C)n3n2)c1
3. Cc1cc(C)n(-c2nc(NC(C)C)nc(NC(C)C)n2)n1
4. COc1cc2c(cc1NC(=O)CSc1nnnn1-c1ccccc1)oc1ccccc12
5. COc1cccc(CNC(=O)c2nnn(CC(=O)Nc3ccc(C)c(C)c3)c2N)c1

1: 5.98; 2: 6.20; 3: 5.08; 4: 5.22; 5: 5.06

Respectfully, I request pIC50 for each entry included below.
1. COc1ccc(-c2noc(CCCC(=O)O)n2)cc1
2. Fc1ccc(-c2nnc(NC3=NCCCCC3)o2)cc1

1. 6.20
2. 5.32

====

Kindly state IC50 for each of the entries shown.
# Study Target: Steroidogenic factor 1 (Homo sapiens, UniProt Q13285)
# Assay Remarks: blockers of SF-1 LBD reporter transcription – cell-based, CHO-K1, Gal4-SF-1 LBD, luciferase luminescence, dose response (AID 600)

Cc1ccc(C(C)C)c(OCCNc2nc3c(c(=O)n(C)c(=O)n3C)n2C)c1 | > 99 µM
Clc1ccc(-c2nnc(NC3=NCCCCC3)o2)cc1 | > 3.67 µM

Respectfully, I request IC50 for each entry included below.
1. CCNc1nc2c(c(=O)n(C)c(=O)n2C)n1Cc1ccc(Cl)cc1
2. COc1ccc(CC(=O)Nc2cccc(-c3nnc(-c4cccc(C)c4)o3)c2)cc1OC
3. Cc1ccc(C(=O)CC=Nc2ccccn2)cc1

["> 3.67 µM", "> 3.67 µM", "> 11 µM"]

====

# Study Target: Steroidogenic factor 1 (Homo sapiens)
# Assay Remarks: blockers of SF-1 LBD reporter transcription – cell-based, CHO-K1, Gal4-SF-1 LBD, luciferase luminescence, dose response (AID 600)
Kindly state IC50 for each of the entries shown.

COc1cc(NS(=O)(=O)c2ccc(C)cc2)c2ncccc2c1 | > 3.67 µM
Cc1cc(C=Nn2cnnc2)c(C)n1-c1ccc(OCc2ccccc2F)cc1 | > 3.67 µM
COC(=O)c1nn(-c2ccc(-c3ccccc3)cc2)cc1O | > 33 µM
c1cncc(-c2nnc(SCc3nc4ccccc4[nH]3)o2)c1 | > 99 µM
COc1ccc(C(=O)NC(=O)Nc2cc(C)ccn2)cc1 | > 1.22 µM

Respectfully, I request IC50 for each entry included below.
1. O=C(Nc1nc(-c2ccccn2)cs1)c1ccc(Cl)s1
2. O=C(Nc1nc(-c2ccc(Cl)s2)cs1)c1ccncc1
3. CN(C)CC(C(=O)c1ccccc1)c1ccccc1 (stereo not drawn)

1. > 3.67 µM
2. > 99 µM
3. > 3.67 µM

====

# Study Target: UniProt:Q13285
# Assay Remarks: blockers of SF-1 LBD reporter transcription – cell-based, CHO-K1, Gal4-SF-1 LBD, luciferase luminescence, dose response (AID 600)
Kindly state IC50 for each of the entries shown.

CCOc1ccc(C2=Nn3c(nnc3-c3ccccc3OC)SC2)cc1 | > 0.407 µM
Clc1cccc(-c2nc(-c3ccccn3)no2)c1 | > 3.67 µM
Cc1cccc(NC(=O)CSc2nnc(-c3cc(C)n(-c4ccccc4)c3C)o2)c1C | > 1.22 µM
c1ccc(-c2ccc(-c3ccccn3)nn2)nc1 | > 11 µM
Oc1c(CN2CCCCC2)cc(Br)c2cccnc12 | > 3.67 µM
CCN(CC)c1ccc2c(c1)OC(=N)C(C#N)C2c1cccnc1 (configuration not stated) | > 3.67 µM

Attention now shifts to the item below.
The molecule listed as Cc1csc(SCC(=O)c2cc(C)n(Cc3cccs3)c2C)n1 has a reported IC50 of > 3.67 µM
